- TESTED SYSTEM: T1, Recombinant WNV-E protein ectodomain (West Nile virus, UniProt Q9Q6P4 291-700)
- T1 construct: extracellular domain; also called rWNV-E; WNE
- T1 sequence (looked up): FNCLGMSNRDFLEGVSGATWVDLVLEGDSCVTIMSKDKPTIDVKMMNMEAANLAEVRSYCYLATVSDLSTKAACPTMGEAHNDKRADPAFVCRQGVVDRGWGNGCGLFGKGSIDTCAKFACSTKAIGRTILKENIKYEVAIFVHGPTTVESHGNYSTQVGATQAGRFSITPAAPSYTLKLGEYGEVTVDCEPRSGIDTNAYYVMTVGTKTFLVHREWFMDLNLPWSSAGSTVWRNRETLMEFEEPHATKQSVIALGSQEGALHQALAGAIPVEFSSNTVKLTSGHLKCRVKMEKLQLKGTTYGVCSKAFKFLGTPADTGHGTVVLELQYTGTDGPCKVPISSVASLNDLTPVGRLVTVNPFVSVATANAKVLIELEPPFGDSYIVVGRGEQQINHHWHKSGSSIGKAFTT
- PROTOCOL NOTES: SPR (Biacore 3000); scFv on NTA chip via His tag, rWNV-E in solution
Listed here are binders together with their documented kon.
Write the answer as a number in M⁻¹ s⁻¹, unit excluded.

[
  {
    "BINDER": "scFv 79 (scFv, also called 79 scFv; antibody 79) scFv: MAQVQLVQSGAEVKKPGSSVKVSCKASGGTFSSYAISWVRQAPGQGLEWMGWMNSNTGDTGYAQKFQGRVTMTRNTSTSTAYMELSSLRSEDTAVYYCAKISNYHYYAMDVWGQGTLVTVSSGGGGSGGGGSGGGGSLPVLTQPPSASGTSGQTVTISCSGGSSNIGSHLVTWYQQFPGTAPKVLIHTNDQRPSGVPDRISGSKSGTSASLAISGLQSDDEGDYYCAAWDDSLNGYVFGTGTKVTVLGQPKATPSAAAEQKLISEEDL",
    "kon / M⁻¹ s⁻¹": 125000
  }
]

Now examine the next entry.
Which value of kon has been reported for scFv 73 (scFv, also called 73 scFv; antibody 73) scFv: MAQVQLVQSGAEVKKPGASVKVSCKASGYTFSGYSTHWLRQVPGQGLEWIGWDNPSSGDTTYAENFRGRVTLTRDTSITTDYLEVRGLRSDDTAVYYCARGGDDYSFDHWGQGTLVTVSSGGGGSGGGGSGGGGSSYELTQPPSASGTPGQRVTISCSGSSSNIGSNTVNWYQQLPGTAPKLLIYSNNQRPSGVPDRFSGSKSGTSASLAISGLQSEDEADYYCAAWDARLTGPLFGGGTKLSVLRQPKAAPSAAAEQKLISEEDL in the records?
517000
